Target: nonphosphorylated Abl kinase (Homo sapiens, UniProt P00519)
Construct: purchased deCode Abl-2
Sequence (P00519 whole entry): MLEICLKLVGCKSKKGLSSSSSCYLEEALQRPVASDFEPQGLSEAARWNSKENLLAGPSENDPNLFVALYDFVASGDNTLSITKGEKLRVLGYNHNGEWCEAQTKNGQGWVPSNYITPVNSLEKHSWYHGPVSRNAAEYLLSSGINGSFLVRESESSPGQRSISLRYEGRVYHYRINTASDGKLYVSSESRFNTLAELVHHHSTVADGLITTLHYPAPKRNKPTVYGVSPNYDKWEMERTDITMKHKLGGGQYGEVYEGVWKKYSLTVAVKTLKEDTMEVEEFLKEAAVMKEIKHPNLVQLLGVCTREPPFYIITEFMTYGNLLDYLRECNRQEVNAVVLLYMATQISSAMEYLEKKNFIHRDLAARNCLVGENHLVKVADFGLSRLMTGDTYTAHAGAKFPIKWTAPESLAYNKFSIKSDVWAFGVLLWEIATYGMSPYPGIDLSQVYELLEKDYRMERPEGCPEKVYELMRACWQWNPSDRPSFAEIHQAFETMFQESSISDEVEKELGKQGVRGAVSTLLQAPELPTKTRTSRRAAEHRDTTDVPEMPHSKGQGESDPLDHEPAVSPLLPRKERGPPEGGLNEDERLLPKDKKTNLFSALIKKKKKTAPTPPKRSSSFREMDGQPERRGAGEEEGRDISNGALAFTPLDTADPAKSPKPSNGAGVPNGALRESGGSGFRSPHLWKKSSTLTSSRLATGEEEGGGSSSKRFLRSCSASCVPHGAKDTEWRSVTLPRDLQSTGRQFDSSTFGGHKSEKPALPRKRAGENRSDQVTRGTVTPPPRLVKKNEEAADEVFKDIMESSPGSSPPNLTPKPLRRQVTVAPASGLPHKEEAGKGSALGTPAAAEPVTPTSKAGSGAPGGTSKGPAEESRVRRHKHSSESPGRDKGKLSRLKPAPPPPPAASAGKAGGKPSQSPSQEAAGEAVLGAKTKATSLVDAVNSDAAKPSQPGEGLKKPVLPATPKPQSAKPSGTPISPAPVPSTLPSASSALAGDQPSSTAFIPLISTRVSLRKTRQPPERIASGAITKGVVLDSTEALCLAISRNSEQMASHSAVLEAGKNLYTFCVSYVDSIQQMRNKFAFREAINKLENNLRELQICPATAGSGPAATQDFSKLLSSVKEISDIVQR
Assay: Abl kinase assay (continuous spectrophotometric, pyruvate kinase/lactate dehydrogenase coupled)
Assay type: biochemical
Settings: read-out: % Inhi @ 10 uM
testReadout: inhibition at 10 µM (%)

                                   molecule          testreadout  readoutnumber
0  Cc1ccc(NC(=O)c2ccc(CN3CCS(=O)(=O)CC3)cc2)cc1Nc1nccc(N2CCOCC2)n1 [Example 15]  inhibition at 10 µM              7
1  Cc1ccc(NC(=O)c2ccc(CN3C(=O)CNS3(=O)=O)cc2)cc1Nc1nccc(-c2ccccc2)n1 [Example 12]  inhibition at 10 µM             52
2  Cc1ccc(NC(=O)c2ccc(CN3CCS(=O)(=O)CC3)cc2)cc1Nc1ncccn1 [Example 13]  inhibition at 10 µM             31
3  Cc1ccc(NC(=O)c2ccc(C(=O)N3C(=O)OC[C@H]3c3ccccc3)cc2)cc1Nc1nccc(-c2ccccc2)n1 [Example 16]  inhibition at 10 µM              9

* * *

Items are presented alongside their recorded inhibition at 10 µM.
Target: nonphosphorylated Abl kinase (Homo sapiens, UniProt P00519)
Construct: purchased deCode Abl-2
Experiment: Abl kinase assay (continuous spectrophotometric, pyruvate kinase/lactate dehydrogenase coupled)
Format: biochemical
Settings: read-out: % Inhi @ 10 uM
Experimental: A continuous spectrophotometric kinase assay is used, wherein the production of adenosine diphosphate is coupled to the oxidation of NADH and measured as a reduction in absorbance at 340 nm. […] Percentage of inhibition in the presence of an inhibitor was obtained by comparison of reaction rate (or slope) with that of a control. IC50 value was calculated from a series of % inhibition values determined at a range of concentrations of the inhibitor using Prism.
testReadout: inhibition at 10 µM (%)

                          structureassmiles          testreadout  unit  readoutnumber
0  Cc1ccc(NC(=O)c2ccc(CN3CC(=O)N(C)C3=O)cc2)cc1Nc1ncccn1  inhibition at 10 µM     %              9
1  Cc1ccc(NC(=O)c2ccc(CN3CC(=O)NS3(=O)=O)cc2)cc1Nc1nccc(-c2cccnc2)n1  inhibition at 10 µM     %             16
2  Cc1ccc(NC(=O)c2ccc(Cn3sc(=O)n(-c4ccccc4)c3=O)cc2)cc1Nc1nccc(-c2ccccc2)n1  inhibition at 10 µM     %             42
3  Cc1ccc(NC(=O)c2ccc(C(=O)N3C(=O)OC[C@@H]3c3ccccc3)cc2)cc1Nc1nccc(-c2cccnc2)n1  inhibition at 10 µM     %             75
4  Cc1ccc(NC(=O)c2ccc(CN3CC(=O)N(C)C3=O)cc2)cc1Nc1nccc(-c2ccccc2)n1  inhibition at 10 µM     %             13
5  Cc1ccc(NC(=O)c2ccc(CNC(=O)NS(=O)(=O)N3CCCC3)cc2)cc1Nc1nccc(-c2ccccc2)n1  inhibition at 10 µM     %             15
6  Cc1ccc(NC(=O)c2ccc(C(=O)N3C(=O)OC[C@H]3c3ccccc3)cc2)cc1Nc1nccc(-c2cccnc2)n1  inhibition at 10 µM     %             70
7  Cc1ccc(NC(=O)c2ccc(CNS(=O)(=O)NC(=O)N3CCCC3)cc2)cc1Nc1ncccn1  inhibition at 10 µM     %              9

* * *

Target: nonphosphorylated Abl kinase (Homo sapiens, UniProt P00519)
Construct: purchased deCode Abl-2
Assay: Abl kinase assay (continuous spectrophotometric, pyruvate kinase/lactate dehydrogenase coupled)
Assay type: biochemical
Details: read-out: % Inhi @ 10 uM
testReadout: inhibition at 10 µM (%)

>>> df
                                   compound          testreadout  unit  readoutnumber
0  CNC(=O)CN(CC(=O)NC)C(=O)c1ccc(C(=O)Nc2ccc(C)c(Nc3ncccn3)c2)cc1 [Example 7]  inhibition at 10 µM     %              9
1  Cc1ccc(NC(=O)c2ccc(CNC(=O)NS(=O)(=O)N3CCCC3)cc2)cc1Nc1ncccn1 [Example 4]  inhibition at 10 µM     %             24
2  Cc1ccc(NC(=O)c2ccc(Cn3c(=O)[nH]n(C)c3=O)cc2)cc1Nc1ncccn1 [Example 21]  inhibition at 10 µM     %             12
3  Cc1ccc(NC(=O)c2ccc(C(=O)N3C(=O)OC[C@@H]3c3ccccc3)cc2)cc1Nc1nccc(-c2ccccc2)n1 [Example 17]  inhibition at 10 µM     %             18
4  Cc1ccc(NC(=O)c2ccc(CNS(=O)(=O)NC(=O)N3CCCC3)cc2)cc1Nc1nccc(-c2ccccc2)n1 [Example 1]  inhibition at 10 µM     %             10
5  CNC(=O)CN(CC(=O)NC)C(=O)c1ccc(C(=O)Nc2ccc(C)c(Nc3nccc(-c4ccccc4)n3)c2)cc1 [Example 8]  inhibition at 10 µM     %             20
6  Cc1ccc(NC(=O)c2ccc(CN3CC(=O)NS3(=O)=O)cc2)cc1Nc1nccc(-c2ccccc2)n1 [Example 23]  inhibition at 10 µM     %             10
